The entries below come with measured log10(IC50) values attached.
Biological target: HPK1 (Homo sapiens (Human))
Sequence (Q92918 whole entry, species assumed): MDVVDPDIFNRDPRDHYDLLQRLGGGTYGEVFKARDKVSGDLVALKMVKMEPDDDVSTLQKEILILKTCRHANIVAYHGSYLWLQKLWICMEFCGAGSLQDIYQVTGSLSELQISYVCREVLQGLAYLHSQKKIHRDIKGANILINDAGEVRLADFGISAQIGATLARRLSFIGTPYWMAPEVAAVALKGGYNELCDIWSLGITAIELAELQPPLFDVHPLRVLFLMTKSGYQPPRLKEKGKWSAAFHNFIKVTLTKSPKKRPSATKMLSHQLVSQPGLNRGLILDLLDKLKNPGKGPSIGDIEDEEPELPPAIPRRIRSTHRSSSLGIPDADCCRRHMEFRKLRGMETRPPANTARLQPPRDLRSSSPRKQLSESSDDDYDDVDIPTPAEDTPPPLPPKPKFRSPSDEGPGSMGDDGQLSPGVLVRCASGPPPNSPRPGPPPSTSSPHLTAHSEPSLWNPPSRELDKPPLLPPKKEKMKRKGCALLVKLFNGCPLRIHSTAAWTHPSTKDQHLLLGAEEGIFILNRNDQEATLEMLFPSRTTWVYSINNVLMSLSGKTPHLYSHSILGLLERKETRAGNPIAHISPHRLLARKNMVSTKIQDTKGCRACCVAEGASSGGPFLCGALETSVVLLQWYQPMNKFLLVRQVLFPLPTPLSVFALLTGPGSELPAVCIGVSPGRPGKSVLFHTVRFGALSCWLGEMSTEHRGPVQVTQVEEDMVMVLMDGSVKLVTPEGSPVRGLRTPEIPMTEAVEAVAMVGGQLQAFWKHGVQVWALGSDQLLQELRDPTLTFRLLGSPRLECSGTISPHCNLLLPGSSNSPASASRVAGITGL
Assay: HPK1 enzyme activity detection (1 mM ATP system), ADP-Glo with MBP substrate, Pharmacological Experiment 2
Format: biochemical
In plain terms, each number is the log10 of measured IC50 in nM.

INPUT: Item under review: CC(C)c1ccn2c(-c3ccc(Nc4ccc5c(n4)C(N(C)C)CC54CCOCC4)c4c3CNC4=O)cnc2c1 (stereo not drawn) [Compound 163] . Reported log10(IC50)?
OUTPUT: 1.40

INPUT: Could you do the same for CN(C)[C@@H]1CC2(CCOCC2)c2ccc(Nc3ccc(-c4cnc5cc(F)ccn45)c4c3C(=O)NC4)nc21 [Compound 2B] , please?
OUTPUT: 0.01

INPUT: Next record, please: CC(C)NC1CC2(CCOCC2)c2ccc(Nc3ccc(-c4cnc5cc(OC(F)F)ccn45)c4c3C(=O)NC4)nc21 (stereo not drawn) [Compound 179]
OUTPUT: 0.95

INPUT: Try this compound next: O=C1NCc2c(-c3cnc4cc(F)ccn34)ccc(Nc3ccc4c(n3)CCCC43CCC3)c21 [Compound 125]
OUTPUT: 1.05
